- Test system: UO-31 renal
- test_protocol: NCI tumour cell line growth inhibition, 48 h
TGI below 20 µM gives 0.0; TGI at or above it gives 1.0.

# molecule, group
data = [
    ("COc1ccc(-c2c(C(C)=O)c(C)n(C3OC(COC(C)=O)C(OC(C)=O)C(OC(C)=O)C3OC(C)=O)c(=S)c2C#N)cc1 (stereo not given)", 0.0),
    ("Cc1cnc2cc(Cl)ccc2c1NCCN(CC(C)C)CC(C)C", 1.0),
    ("Cc1cn2c(/C=N/NC3=NCCN3)c(-c3ccc(Cl)c([N+](=O)[O-])c3)nc2s1", 0.0),
    ("COC(=O)CC12CC(NC(=O)c3csc([C@@H](C[C@H](C(C)C)N(C)C(=O)[C@@H](NC(=O)[C@H]4CCCCN4C)C(C)C)OC(C)=O)n3)(C1)C2", 1.0),
    ("Cc1cc(C)c2c(=O)cc(-c3ccc(F)cc3)[nH]c2n1", 1.0),
    ("O=C(NC/C=C/CO)c1ccccc1", 1.0),
    ("C=C1CC2(C)CCC(OC(=O)C3(C)OC3C)C(C)(OC(C)=O)C2CC1=C(C)C (stereo not given)", 1.0),
    ("CCCC(c1cc(C(C)(C)C)c(O)cc1C)c1cc(C(C)(C)C)c(O)cc1C", 0.0),
    ("CC(=O)NS(=O)(=O)c1ccc(-n2nc(-c3ccccc3)cc2-c2cc(O)ccc2O)cc1", 1.0),
    ("NCCSC1(O)C(=O)c2ccccc2-c2ccccc21 (stereo not given)", 0.0),
    ("COc1ccccc1NC(=S)NNC(=O)c1cc(-c2ccccc2)nc2ccccc12", 1.0),
    ("COc1ccc(-c2cc(=O)c3cc4c(cc3[nH]2)OCO4)c(OC)c1", 1.0),
    ("COc1ccc(/C=C/C(=O)c2ccc(B(O)O)cc2)cc1O", 1.0),
    ("N#Cc1nc(/C=C/c2cccs2)oc1N", 1.0),
    ("CCN1CCC(O)(/C=C/c2cccc(C)c2)C(C(=O)/C=C/c2cccc(C)c2)C1 (stereo not given)", 0.0),
    ("C/C(=N/NC(=S)Nc1ccccc1C)c1ccccn1", 0.0),
    ("COc1cc2c(OC)c3cc(C)oc(=O)c3c(O)c2c(O)c1-c1c(OC)cc2c(OC)c3cc(C)oc(=O)c3c(O)c2c1O", 1.0),
    ("Cc1ccc(NC(=O)C23CC4CC(CC(C4)C2)C3)c(C(=O)NNC(=O)c2ccc(Cl)cc2)c1", 1.0),
    ("N#Cc1nc(N)c(C#N)[nH]1", 1.0),
    ("COc1cc(S(=O)(=O)Nc2ccc(-c3csc(/N=C\\c4ccccc4O)n3)cc2)ccc1Cl", 1.0),
]

----------
- Test system: SR leukemia
- test_protocol: NCI tumour cell line growth inhibition, 48 h
Parameter TGI: see the listing below.

# compound, assayed_system, unit_of_measure, censoring_sign, TGI
measured = [
    ("CCCCN(CCCC)C(=O)C(=O)C(C(=O)C(=O)OC)c1nc2ccccc2o1 (stereo not given)", "SR leukemia", "µM", ">", 100),
    ("CCOC(=O)c1csc(NC(=O)CCN2CCOCC2)n1", "SR leukemia", "µM", ">", 100),
    ("CCc1nc2c(n1CC)C(=O)c1ccccc1C2=O", "SR leukemia", "µM", ">", 100),
    ("CC(=O)N[C@@H](Cc1ccc(OP(=O)(O)O)cc1)C(=O)N[C@H]1CCC(=O)N2CCC[C@@H](C(=O)NCc3cccc4ccccc34)N2C1=O", "SR leukemia", "µM", ">", 25),
    ("C=C1CC2(C)CCC(OC(=O)C3(C)OC3C)C(C)(OC(C)=O)C2CC1=C(C)C (stereo not given)", "SR leukemia", "µM", ">", 100),
    ("COc1ncnn2ccc(-c3cnc4nc(C)n(Cc5nnc(C(C)F)o5)c4c3)c12 (stereo not given)", "SR leukemia", "µM", "=", 16),
    ("Cc1ccc(S(=O)(=O)NN=C2C(C)CC(C(C)(C)C)CC2C)cc1 (stereo not given)", "SR leukemia", "µM", "=", 62.2),
    ("CCCC(c1cc(C(C)(C)C)c(O)cc1C)c1cc(C(C)(C)C)c(O)cc1C", "SR leukemia", "µM", "=", 5.33),
    ("CCOC(=O)C(CC(C)C)NC(=O)C(N)Cc1ccc(N(CCCl)CCCl)cc1 (stereo not given)", "SR leukemia", "µM", "=", 4.69),
    ("C/C(=N/NC(=S)Nc1ccccc1C)c1ccccn1", "SR leukemia", "µM", ">", 4.64),
]

----------
- Test system: NCI-H226 lung
- test_protocol: NCI tumour cell line growth inhibition, 48 h
Parameter TGI: see the listing below.

# molecule, assayed_system, TGI
data = [
    ("Cc1ccccc1C(C#N)/C(=N/NC(N)=S)C(=O)Nc1c(C)cccc1C (stereo unspecified)", "NCI-H226 lung", "> 100 µM"),
    ("CCOC(=O)c1sc(Nc2cc(Cl)ccc2Cl)nc1C", "NCI-H226 lung", "> 100 µM"),
    ("CC1(C)CC(=O)c2c(nc3c(ccc4ccccc43)c2-c2ccc(NC(=O)CCCCCCCCC(=O)Nc3ccc(-c4c5c(nc6c4ccc4ccccc46)CC(C)(C)CC5=O)cc3)cc2)C1", "NCI-H226 lung", "> 100 µM"),
    ("C/C(CC(O)(C(F)(F)Cl)C(F)(F)Cl)=N\\Nc1ccccc1", "NCI-H226 lung", "89.1 µM"),
    ("O=C(NC(=S)Nc1ccc(-c2nc3ccccc3[nH]2)cc1)c1ccc2ccccc2c1", "NCI-H226 lung", "25.4 µM"),
    ("CC(C)(Cl)C(Br)CCC(=CCBr)CBr (mixture of isomers)", "NCI-H226 lung", "51.9 µM"),
    ("CC(=O)OC12c3ccccc3C(c3ccccc31)C1C(=O)N(c3ccccc3O)C(=O)C12 (stereo unspecified)", "NCI-H226 lung", "> 100 µM"),
    ("O=P1(O)c2ccccc2CSCc2ccccc21", "NCI-H226 lung", "> 100 µM"),
    ("COc1ccc2c(c1)OC(N)=C(C#N)C2c1ccc(F)c(F)c1 (stereo unspecified)", "NCI-H226 lung", "> 100 µM"),
    ("CSc1nc(SC)c2c(C)cn(Cc3ccccc3)c2n1", "NCI-H226 lung", "> 100 µM"),
    ("CCCCN(CCCC)C1(c2cc3ccccc3s2)CCCCC1", "NCI-H226 lung", "33.9 µM"),
]

----------
- Test system: DMS 114 small cell lung
- test_protocol: NCI tumour cell line growth inhibition, 48 h

# compound, TGI
data = [
    ("O=C(Cc1c(C(=O)Nc2ccccc2)sc(C(=O)Nc2ccccc2)c1CC(=O)Nc1ccccc1)Nc1ccccc1", "> 100 µM"),
    ("CC[C@H]1[C@@H](C)C=C[C@@H](C)N1S(=O)(=O)c1ccc(C)cc1", "34.9 µM"),
    ("Cc1ccccc1C(C#N)/C(=N/NC(N)=S)C(=O)Nc1c(C)cccc1C (stereo unspecified)", "> 100 µM"),
    ("Cc1cc2c(=O)cc(-c3ccc(Cl)cc3Cl)oc2c(C(=O)O)c1C", "> 100 µM"),
    ("O=C(NC/C=C/CO)c1ccccc1", "> 100 µM"),
    ("CC1OC(n2ccc3ccc([N+](=O)[O-])cc32)C(O)C(O)C1O (stereo unspecified)", "> 100 µM"),
]

----------
- Test system: LOX IMVI melanoma
- test_protocol: NCI tumour cell line growth inhibition, 48 h
Where a SMILES comes first, the peptide text is derived from it. The star is where a group is joined. Boc = CC(C)(C)OC(=O)*

# molecule, assayed_system, TGI
measured = [
    ("CC[C@H](C)[C@H](NC(=O)[C@H](Cc1ccc(O)cc1)NCC(F)(F)F)C(=O)OC(C)(C)C", "LOX IMVI melanoma", "17.5 µM"),
    ("N#CCC(=O)N/N=C(/C(=O)Nc1ccccc1)C1C(=O)N(c2ccccc2)N=C1N (configuration not stated)", "LOX IMVI melanoma", "> 100 µM"),
    ("CCOC(=O)Nc1nc(-c2ccccc2)c(C)s1", "LOX IMVI melanoma", "> 100 µM"),
    ("CCCCN(CCCC)C1(c2cc3ccccc3s2)CCCCC1", "LOX IMVI melanoma", "28.3 µM"),
    ("c1ccc(C2C3=C(c4ccccc4CC3)N3c4cc5nc6ccccc6nc5cc4NC34CCCCC24)cc1 (configuration not stated)", "LOX IMVI melanoma", "> 10 µM"),
    ("N#Cc1nc(/C=C/c2cccs2)oc1N", "LOX IMVI melanoma", "> 100 µM"),
    ("CO[C@@H]1C[C@H]2[C@@H]3CC[C@H]([C@@H](C)COC(C)=O)[C@@]3(C)CC[C@@H]2[C@@]2(C)CC[C@H]3C[C@]312", "LOX IMVI melanoma", "23.6 µM"),
    ("COc1cc(S(=O)(=O)Nc2ccc(-c3csc(/N=C\\c4ccccc4O)n3)cc2)ccc1Cl", "LOX IMVI melanoma", "> 100 µM"),
    ("Oc1c(Nc2ccccc2)cc2c3c1N=NC=3CCN=2", "LOX IMVI melanoma", "46.6 µM"),
    ("CCN(CC)CCC1CCCCN1CC(=O)N1c2ccccc2NC(=O)CC1C (configuration not stated)", "LOX IMVI melanoma", "> 100 µM"),
    ("CC(=O)OC1C(COC(N)=O)OC(n2c(-c3ccc(C)cc3)cc(-c3ccccc3)c(C#N)c2=O)C(OC(C)=O)C1OC(C)=O (configuration not stated)", "LOX IMVI melanoma", "> 100 µM"),
    ("Cc1cc2c(=O)cc(-c3ccc(Cl)cc3Cl)oc2c(C(=O)O)c1C", "LOX IMVI melanoma", "> 100 µM"),
    ("N#CC1(C#N)C2C=CC(C3CC=CC32)C1(C#N)C#N (configuration not stated)", "LOX IMVI melanoma", "18.6 µM"),
    ("CC1=CC=C2C(C)(C)CC[C@@H]3OC(=O)[C@H]1[C@]23C", "LOX IMVI melanoma", "> 100 µM"),
    ("O=C(OC1C#CCSCC#C/C=C\\1)c1cnc2ccccc2n1 (configuration not stated)", "LOX IMVI melanoma", "> 100 µM"),
    ("O=C1CCN(CCC(F)(F)C(F)(F)C(F)(F)C(F)(F)F)C(=S)N1", "LOX IMVI melanoma", "> 100 µM"),
    ("NNC(=S)N/N=C/c1ccccn1", "LOX IMVI melanoma", "> 100 µM"),
    ("OC1CCC(COC(c2ccccc2)(c2ccccc2)c2ccccc2)O1 (configuration not stated)", "LOX IMVI melanoma", "34.3 µM"),
    ("COc1ccc(/C=C2\\N=C(N3CCOCC3)NC2=O)cc1", "LOX IMVI melanoma", "> 100 µM"),
    ("CNC(=O)CNC(=O)C(NC(=O)CNC(=O)C1CCCN1C(=O)C(C)NC(=O)C(NC(=O)OC(C)(C)C)C(C)C)C(C)C (configuration not stated) (Boc-VAPGVG-NHMe; configuration not given here)", "LOX IMVI melanoma", "> 100 µM"),
    ("Brc1ccc2[nH]cc([C@@H]3CN[C@@H](c4c[nH]c5ccc(Br)cc45)CN3)c2c1", "LOX IMVI melanoma", "3.38 µM"),
    ("O=C(O)CSc1nc2ccccc2[nH]1", "LOX IMVI melanoma", "> 100 µM"),
    ("N[C@@H]1c2c(Br)sc(Br)c2C(=O)[C@H]1Br", "LOX IMVI melanoma", "33.3 µM"),
    ("COc1ccc(-c2c(C(C)=O)c(C)n(C3OC(COC(C)=O)C(OC(C)=O)C(OC(C)=O)C3OC(C)=O)c(=S)c2C#N)cc1 (configuration not stated)", "LOX IMVI melanoma", "> 100 µM"),
    ("Cc1ccc(OC2CC(n3cnc4c(=O)[nH]c(Br)nc43)OC2Oc2ccc(C)cc2)cc1 (configuration not stated)", "LOX IMVI melanoma", "72 µM"),
    ("CN1CCC2(CC1)C(=O)N(NC(N)=O)C(=O)C2c1ccccc1 (configuration not stated)", "LOX IMVI melanoma", "> 100 µM"),
    ("C/C(CC(O)(C(F)(F)Cl)C(F)(F)Cl)=N\\Nc1ccccc1", "LOX IMVI melanoma", "> 100 µM"),
    ("O=C(NC/C=C/CO)c1ccccc1", "LOX IMVI melanoma", "> 100 µM"),
    ("Fc1ccc(-c2nn3c(COc4ccccc4Cl)nnc3s2)cc1Oc1ccccc1", "LOX IMVI melanoma", "51.9 µM"),
    ("Cc1nn(C(=O)c2ccc(Cl)cc2)c2c1C(c1ccccc1)SC(N)=N2 (configuration not stated)", "LOX IMVI melanoma", "> 10 µM"),
    ("Cc1ccc(C)n1-n1c(Cc2ccc(Cl)cc2)n[nH]c1=O", "LOX IMVI melanoma", "> 100 µM"),
    ("COc1ccc2c(c1)OC(N)=C(C#N)C2c1ccc(F)c(F)c1 (configuration not stated)", "LOX IMVI melanoma", "> 100 µM"),
    ("Cc1cc(S(=O)(=O)Nc2n[nH]c(-c3ccc(Cl)cc3)c2C#N)c(S)cc1Cl", "LOX IMVI melanoma", "> 100 µM"),
    ("COc1ccc(/C=C2\\C(=O)Nc3ccccc32)cc1OC", "LOX IMVI melanoma", "> 100 µM"),
    ("CN(NC(=O)c1ccc(Cl)cc1)C1=NCCCCN1", "LOX IMVI melanoma", "> 100 µM"),
    ("CSc1nc(SC)c2c(C)cn(Cc3ccccc3)c2n1", "LOX IMVI melanoma", "> 100 µM"),
    ("CCOC(=O)c1c2c(n(Cc3ccccc3)c1C)-c1nc[nH]c1C(=O)C2=O", "LOX IMVI melanoma", "28.1 µM"),
    ("O=C1CNC(=O)N1", "LOX IMVI melanoma", "> 1120 µM"),
    ("Clc1ccc(Nc2ncnc3ccccc23)cc1", "LOX IMVI melanoma", "> 100 µM"),
    ("O=C(c1ccccc1)c1ccc(N2C(=O)/C(=C/c3cccc([N+](=O)[O-])c3)N=C2c2ccccc2)c(N2C(=O)/C(=C/c3cccc([N+](=O)[O-])c3)N=C2c2ccccc2)c1", "LOX IMVI melanoma", "> 100 µM"),
    ("CC1NC(=O)c2c(-c3ccccc3)nn(-c3ccccc3)c2NC1=O (configuration not stated)", "LOX IMVI melanoma", "> 100 µM"),
    ("CC(=O)NS(=O)(=O)c1ccc(-n2nc(-c3ccccc3)cc2-c2cc(O)ccc2O)cc1", "LOX IMVI melanoma", "> 100 µM"),
]

Just for reference, PubChem BioAssay (NCI) is where these values come from.
